Test system: HCC 2998
assay details: Antiproliferative activity against human HCC2998 cells after 96 hrs by CellTiter-Glo luminescent cell viability assay
Format: functional, cell-based
cond: HCC 2998, 96 h
measured property: pIC50
pIC50 is defined as minus the log10 of a concentration measured in mol/L.

Entry C=C(C)[C@H]1Cc2c(ccc3c2O[C@@H]2COc4cc(OC)c(OC)cc4[C@]2(O)C3=O)O1 [ROTENOLONE] has what pIC50?
5.54
